molecular target: NPR-B (Homo sapiens, UniProt P20594); construct: a functional assay using endogenously NPR-B expressing GTM-3 cells; endogenous in cells; host or cells: GTM-3 (human glaucoma trabecular meshwork cells); assay: NPR-B induced production of cyclic GMP in human glaucoma trabecular meshwork cells (GTM-3); type: cell-based; conditions: group by EC50 and Emax (CNP = 100%); Table 4; read-out: Activity (group), NPR-B activation assayed with GTM-3 cells
Sequence (P20594 23-1047): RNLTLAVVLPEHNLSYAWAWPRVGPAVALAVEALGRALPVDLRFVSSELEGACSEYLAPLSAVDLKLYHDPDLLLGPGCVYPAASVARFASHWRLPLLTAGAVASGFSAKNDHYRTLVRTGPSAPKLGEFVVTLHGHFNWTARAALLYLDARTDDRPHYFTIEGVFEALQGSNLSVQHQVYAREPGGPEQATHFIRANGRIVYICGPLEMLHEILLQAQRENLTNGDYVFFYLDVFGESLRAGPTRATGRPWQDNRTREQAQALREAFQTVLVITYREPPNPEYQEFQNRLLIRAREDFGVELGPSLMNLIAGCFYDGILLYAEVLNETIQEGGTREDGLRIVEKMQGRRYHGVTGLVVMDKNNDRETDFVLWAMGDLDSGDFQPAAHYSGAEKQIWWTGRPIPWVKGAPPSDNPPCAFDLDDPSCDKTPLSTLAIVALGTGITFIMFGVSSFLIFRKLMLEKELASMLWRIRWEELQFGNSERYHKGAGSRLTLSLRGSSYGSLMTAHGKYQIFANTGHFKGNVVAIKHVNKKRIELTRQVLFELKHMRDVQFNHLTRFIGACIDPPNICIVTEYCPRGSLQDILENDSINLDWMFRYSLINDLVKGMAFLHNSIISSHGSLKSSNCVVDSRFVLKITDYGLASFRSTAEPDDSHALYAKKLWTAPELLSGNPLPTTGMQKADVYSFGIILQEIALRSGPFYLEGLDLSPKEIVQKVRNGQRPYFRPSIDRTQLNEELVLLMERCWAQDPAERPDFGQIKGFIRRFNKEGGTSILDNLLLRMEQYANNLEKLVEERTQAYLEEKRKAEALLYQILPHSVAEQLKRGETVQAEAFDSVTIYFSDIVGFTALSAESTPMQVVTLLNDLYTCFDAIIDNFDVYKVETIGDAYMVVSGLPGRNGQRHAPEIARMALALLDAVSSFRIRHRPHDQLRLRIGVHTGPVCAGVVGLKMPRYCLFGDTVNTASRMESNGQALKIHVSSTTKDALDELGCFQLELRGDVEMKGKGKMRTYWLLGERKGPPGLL
Numbered stars: 1 amine (or outer) side, 2 acyl side, 3 side chain; on linkers, the order of the positions; unused ones are H or OH. Square brackets hold non-standard residues; d marks the D form. Peptide text beside a SMILES is read from it. * marks the point of attachment. Pro(4R-NH2) = N[C@H]1CN[C@H](C(=O)O)C1; dOrn(Me2) = CN(C)CCC[C@@H](N)C(=O)O; X2 = O=C([C@H]1CCCN([*:1])C1)[*:2]; NHcycloheptyl = C1CCCC(N*)CC1; NMeL = CN[C@@H](CC(C)C)C(=O)O; Octanoyl = CCCCCCCC(=O)*
We begin with a simple list: items and their reported EC50.

compound="CCCCCCCC(=O)N1CCC[C@H](C(=O)N[C@@H](Cc2ccccc2)C(=O)N[C@H](CC(C)C)C(=O)N[C@@H](CC(C)C)C(=O)N2C[C@H](O)C[C@H]2C(=O)N(C)[C@@H](CC(C)C)C(=O)N[C@H](C(=O)N[C@@H](CCCNC(=N)N)C(=O)N[C@H](C(N)=O)[C@@H](C)CC)[C@@H](C)O)C1 [JAL-1932] (HELM PEPTIDE1{[CCCCCCCC(=O)[*:2]].[O=C([C@H]1CCCN([*:1])C1)[*:2]].F.[dL].L.[Hyp].[meL].T.R.I.[am]}$$$$V2.0)" value_type=EC50 measurement="< 1000 nM"

The recorded EC50 for CCCCCCCC(=O)N1CCC[C@H](C(=O)N[C@@H](Cc2ccccc2)C(=O)N[C@H](CCCN(C)C)C(=O)N[C@@H](CC(C)C)C(=O)N2C[C@H](N)C[C@H]2C(=O)N(C)[C@@H](CC(C)C)C(=O)N[C@H](C(=O)N[C@@H](CCCNC(=N)N)C(=O)NC2CCCCCC2)C(C)C)C1 [JAL-1850] (Octanoyl-[X2]F[dOrn(Me2)]L[Pro(4R-NH2)][NMeL]VR-NHcycloheptyl) is < 1000 nM

====

Listed here: items and their measured pEC50.
target: NPR-B (Homo sapiens, UniProt P20594); construct: a functional assay using endogenously NPR-B expressing GTM-3 cells; endogenous in cells; host or cells: GTM-3 (human glaucoma trabecular meshwork cells); assay: NPR-B induced production of cyclic GMP in human glaucoma trabecular meshwork cells (GTM-3); type: cell-based; settings: group by EC50 and Emax (CNP = 100%); Table 4; read-out: Activity (group), NPR-B activation assayed with GTM-3 cells
pEC50: −log10 of the molar value. Numbered stars: 1 amine (or outer) side, 2 acyl side, 3 side chain; on linkers, the order of the positions; unused ones are H or OH. Square brackets hold non-standard residues; d marks the D form. Peptide text beside a SMILES is read from it. * marks the point of attachment. X14 = NCC(=O)N[C@@H]1C[C@@H](C(=O)[*:2])N([*:1])C1; Phe(4-Cl) = N[C@@H](Cc1ccc(Cl)cc1)C(=O)O; X2 = O=C([C@H]1CCCN([*:1])C1)[*:2]; Hyp = O=C(O)[C@@H]1C[C@@H](O)CN1; NMeL = CN[C@@H](CC(C)C)C(=O)O; dOrn = NCCC[C@@H](N)C(=O)O; Octanoyl = CCCCCCCC(=O)*

molecule="CCCCCCCC(=O)N1CCC[C@H](C(=O)N[C@@H](Cc2ccc(Cl)cc2)C(=O)N[C@H](CC(C)C)C(=O)N[C@@H](CC(C)C)C(=O)N2C[C@H](O)C[C@H]2C(=O)N(C)[C@@H](CC(C)C)C(=O)N[C@@H](CC(=O)O)C(=O)N[C@@H](CCCNC(=N)N)C(=O)N[C@H](C(N)=O)[C@@H](C)CC)C1 [JAL-1493] (Octanoyl-[X2][Phe(4-Cl)][dL]L[Hyp][NMeL]DRI-NH2)" assay_target="NPR-B (Homo sapiens, UniProt P20594)" measurement="> 6.00"
molecule="CCCCCCCC(=O)N[C@H](C)C(=O)N(C)[C@@H](Cc1ccccc1)C(=O)N[C@H](CC(C)C)C(=O)N[C@@H](CC(C)C)C(=O)N1C[C@H](O)C[C@H]1C(=O)N(C)[C@@H](CC(C)C)C(=O)N[C@@H](CC(=O)O)C(=O)N[C@@H](CCCNC(=N)N)C(=O)N[C@H](C(N)=O)[C@@H](C)CC [JAL-1267] (HELM PEPTIDE1{[CCCCCCCC(=O)[*:2]].[dA].[meF].[dL].L.[Hyp].[meL].D.R.I.[am]}$$$$V2.0)" assay_target="NPR-B (Homo sapiens, UniProt P20594)" measurement="> 6.00"

Looking up CCCCCCCC(=O)N1CCC[C@H](C(=O)N[C@@H](Cc2ccccc2)C(=O)N[C@H](CCCN)C(=O)N[C@@H](CC(C)C)C(=O)N2C[C@H](O)C[C@H]2C(=O)N(C)[C@@H](CC(C)C)C(=O)N[C@@H](CC(=O)O)C(=O)N[C@@H](CCCNC(=N)N)C(=O)N[C@H](C(N)=O)[C@@H](C)CC)C1 [JAL-1265] (Octanoyl-[X2]F[dOrn]L[Hyp][NMeL]DRI-NH2) , I found its pEC50 recorded as > 6.00

The measured pEC50 associated with CCCCCCCCN1CCC[C@H](C(=O)N[C@@H](Cc2ccccc2)C(=O)N[C@H](CCCNC(=N)N)C(=O)N[C@@H](CC(C)C)C(=O)N2C[C@H](O)C[C@H]2C(=O)N(C)[C@@H](CC(C)C)C(=O)N[C@@H](CC(=O)O)C(=O)N[C@@H](CCCNC(=N)N)C(=O)N[C@H](C(N)=O)[C@@H](C)CC)C1 [JAL-1297] (HELM PEPTIDE1{[CCCCCCCCN1CCC[C@H](C(=O)[*:2])C1].F.[dR].L.[Hyp].[meL].D.R.I.[am]}$$$$V2.0) reads > 6.00

In plain terms, CCCCCCCC(=O)N1CCC[C@H](C(=O)N[C@@H](Cc2ccccc2)C(=O)N[C@H](CC(C)C)C(=O)N[C@@H](CC(C)C)C(=O)N2C[C@H](NC(=O)CN)C[C@H]2C(=O)N(C)[C@@H](CC(C)C)C(=O)N[C@@H](CC(=O)O)C(=O)N[C@@H](CCCNC(=N)N)C(=O)N[C@H](C(N)=O)[C@@H](C)CC)C1 [JAL-1322] (Octanoyl-[X2]F[dL]L[X14][NMeL]DRI-NH2) has a documented pEC50 of > 6.00
